The entries below come with measured efficacy (% GABA EC3) values attached.
# systemUnderTest: recombinant rat α2β3γ2 receptors (Rattus norvegicus, UniProt P18508+P23576)
# Sequence (P23576 29-451): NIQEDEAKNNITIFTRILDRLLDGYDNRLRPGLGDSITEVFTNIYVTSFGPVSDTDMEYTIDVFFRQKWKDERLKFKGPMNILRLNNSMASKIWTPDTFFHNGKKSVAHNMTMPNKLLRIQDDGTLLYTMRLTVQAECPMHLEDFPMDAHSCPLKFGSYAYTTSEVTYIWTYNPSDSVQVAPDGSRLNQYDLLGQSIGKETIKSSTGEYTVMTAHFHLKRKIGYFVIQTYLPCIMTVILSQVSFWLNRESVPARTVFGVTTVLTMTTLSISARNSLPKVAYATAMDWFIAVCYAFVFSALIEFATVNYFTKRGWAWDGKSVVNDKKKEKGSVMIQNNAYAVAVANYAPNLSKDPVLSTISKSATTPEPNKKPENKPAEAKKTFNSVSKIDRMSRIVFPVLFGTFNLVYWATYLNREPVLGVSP
# Sequence (P63079 26-473 partner): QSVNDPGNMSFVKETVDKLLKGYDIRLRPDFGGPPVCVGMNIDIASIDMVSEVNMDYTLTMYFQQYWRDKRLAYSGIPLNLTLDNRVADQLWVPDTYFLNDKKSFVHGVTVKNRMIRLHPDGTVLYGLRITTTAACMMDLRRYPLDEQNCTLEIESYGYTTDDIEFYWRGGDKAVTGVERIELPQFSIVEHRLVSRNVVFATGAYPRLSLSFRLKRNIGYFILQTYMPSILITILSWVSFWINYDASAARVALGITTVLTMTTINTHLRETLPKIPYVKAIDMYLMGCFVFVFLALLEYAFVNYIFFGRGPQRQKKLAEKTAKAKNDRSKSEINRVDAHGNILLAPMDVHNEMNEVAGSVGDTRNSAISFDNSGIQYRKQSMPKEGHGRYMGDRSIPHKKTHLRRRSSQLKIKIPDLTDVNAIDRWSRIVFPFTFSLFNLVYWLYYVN
# Sequence (P18508 39-466): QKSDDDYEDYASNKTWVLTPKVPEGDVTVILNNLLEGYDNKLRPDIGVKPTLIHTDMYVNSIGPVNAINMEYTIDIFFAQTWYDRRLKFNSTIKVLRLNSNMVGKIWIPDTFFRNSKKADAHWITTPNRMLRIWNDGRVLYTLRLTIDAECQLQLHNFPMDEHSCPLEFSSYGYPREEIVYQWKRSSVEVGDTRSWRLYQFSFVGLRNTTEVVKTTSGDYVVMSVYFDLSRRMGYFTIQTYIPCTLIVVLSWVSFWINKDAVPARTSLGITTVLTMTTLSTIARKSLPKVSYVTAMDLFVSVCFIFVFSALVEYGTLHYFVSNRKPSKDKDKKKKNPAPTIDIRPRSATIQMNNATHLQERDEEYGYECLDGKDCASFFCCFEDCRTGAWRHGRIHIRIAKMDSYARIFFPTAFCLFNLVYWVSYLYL
# protocol: Two-electrode voltage clamp of GABA-induced chloride currents in Xenopus oocytes
# Assay type: cell-based
# conditionSummary: 1 μM; α2β3γ2; ns = not significant
measuredQuantity: efficacy (% GABA EC3)

| compound | readingUnit | number |
| --- | --- | --- |
| CC(C)(C)OC(=O)c1ncn2c1[C@@H]1CCCN1C(=O)c1c(Br)cccc1-2 | % GABA EC3 | 130 |
| CN1C(=O)CN=C(c2ccccc2)c2cc(Cl)ccc21 | % GABA EC3 | 536 |
| CCc1c(C(=O)OC)ncc2[nH]c3cc(OC)c(OC)cc3c12 | % GABA EC3 | 54 |
| CCOC(=O)c1ncn2c1CN(C)C(=O)c1cc(F)ccc1-2 | % GABA EC3 | 130 |
| CN1CCN(C(=O)OC2c3nccnc3C(=O)N2c2ccc(Cl)cn2)CC1 (stereo not shown) | % GABA EC3 | 289 |
